- test-system: rat TRPM8 (Rattus norvegicus, UniProt Q8R455)
- Construct: In the assays exemplified herein, cells which express the full-length TRPM8 polypeptide are used in high throughput assays; expressed in transfected cells; host or cells: Xenopus oocytes microinjected with rat TRPM8 cRNA
- Sequence (Q8R455 whole entry): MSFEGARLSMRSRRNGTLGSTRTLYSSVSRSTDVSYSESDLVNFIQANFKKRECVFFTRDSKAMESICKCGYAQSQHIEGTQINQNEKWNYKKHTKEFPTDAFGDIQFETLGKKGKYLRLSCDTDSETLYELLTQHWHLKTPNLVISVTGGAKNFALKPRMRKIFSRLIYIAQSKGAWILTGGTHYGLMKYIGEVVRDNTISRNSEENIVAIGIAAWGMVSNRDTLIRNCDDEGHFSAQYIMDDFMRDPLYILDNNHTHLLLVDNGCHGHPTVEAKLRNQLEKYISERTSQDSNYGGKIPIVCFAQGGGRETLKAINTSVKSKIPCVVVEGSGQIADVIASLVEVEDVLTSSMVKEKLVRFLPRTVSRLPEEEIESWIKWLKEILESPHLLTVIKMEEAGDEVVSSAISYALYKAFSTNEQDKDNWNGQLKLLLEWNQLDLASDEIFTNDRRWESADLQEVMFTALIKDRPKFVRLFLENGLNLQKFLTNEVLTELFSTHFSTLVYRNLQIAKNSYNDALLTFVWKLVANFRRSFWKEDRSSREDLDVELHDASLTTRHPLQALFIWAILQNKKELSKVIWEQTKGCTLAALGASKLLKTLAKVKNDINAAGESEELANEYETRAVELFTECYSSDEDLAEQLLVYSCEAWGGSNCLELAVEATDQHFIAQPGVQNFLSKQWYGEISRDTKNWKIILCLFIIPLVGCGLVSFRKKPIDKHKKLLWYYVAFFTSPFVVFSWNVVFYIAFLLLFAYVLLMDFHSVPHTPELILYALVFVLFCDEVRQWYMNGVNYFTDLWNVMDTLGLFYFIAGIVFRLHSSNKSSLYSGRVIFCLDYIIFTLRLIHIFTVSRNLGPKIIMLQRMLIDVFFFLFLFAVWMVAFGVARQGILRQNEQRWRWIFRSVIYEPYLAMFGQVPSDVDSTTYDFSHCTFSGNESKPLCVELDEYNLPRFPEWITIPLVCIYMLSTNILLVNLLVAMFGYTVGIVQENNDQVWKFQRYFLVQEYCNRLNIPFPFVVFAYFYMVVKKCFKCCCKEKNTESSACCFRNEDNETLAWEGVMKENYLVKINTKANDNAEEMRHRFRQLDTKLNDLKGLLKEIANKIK
- measurement-description: Voltage clamp electrophysiology in Xenopus oocytes expressing rat TRPM8 (OpusXpress)
- Type: cell-based
- measurement-conditions: 4-6 independent oocytes, one day post-injection

compound: CC1CCC(C(C)C)C(O)C1 (stereo not shown) [menthol]
peak agonist-induced currents: large peak currents

compound: CC12CCC(CC1)C(C)(C)O2 [eucalyptol]
peak agonist-induced currents: small peak currents

compound: C [methane]
peak agonist-induced currents: small peak currents

compound: O=C1NC(c2cccc([N+](=O)[O-])c2)=CCN1c1ccccc1O [icilin]
peak agonist-induced currents: large peak currents
